Give Morningglory plant response rating for every item shown.
System: morningglory
TEST: Test B pre/postemergence morningglory
Assay type: in vivo, Ipomoea hederacea
CONDITION_SUMMARY: Postemergence, Rate 125 g/ha; scale 0 to 10, 0 is no effect, 10 is complete control

Below, each entry is followed by its recorded Morningglory plant response rating result.
Asked: Please report the recorded Morningglory plant response rating for CC(C)N(C(=O)n1oc(=O)n(CCc2ccccc2)c1=O)c1ccccc1 .
Given back: 4

Asked: Please report the recorded Morningglory plant response rating for CCC(=O)Cn1c(=O)on(C(=O)N(c2ccc(F)cc2F)C(C)C)c1=O .
Given back: 2

Asked: Please report the recorded Morningglory plant response rating for CC(=O)OCCCCn1c(=O)on(C(=O)N(c2ccc(F)cc2F)C(C)C)c1=O .
Given back: 0

For each of the molecules below, state Morningglory plant response rating.
1. COCCOCn1c(=O)on(C(=O)N(c2ccc(Cl)cc2)C(C)C)c1=O
2. CC(=O)OCCCCn1c(=O)on(C(=O)N(c2ccc(Cl)cc2)C(C)C)c1=O

Given back:
1. 2
2. 2

For each of the molecules below, state Morningglory plant response rating.
1. CC(C)N(C(=O)n1oc(=O)n(CCCF)c1=O)c1ccc(F)cc1F
2. CCCCCn1c(=O)on(C(=O)N(c2ccccc2)C(C)C)c1=O

Given back:
3
8
